TARGET_OR_SYSTEM: human Nav1.6 voltage-gated sodium channels (Homo sapiens)
Construct: host or cells: HEK293
METHOD: Whole-cell patch-clamp recording of sodium current activation (peak INa, activation voltage) in HEK293 cells transfected with Nav1.6
Type: cell-based
MEASUREMENT_CONDITIONS: read-out: IC50, percent inhibition of the peak inward sodium currents (INa)
Protocol: The human embryonic kidney cell line (HEK293) transfected with the α subunit of the Nav1.6 sodium channel isoform was kindly provided, under a material transfer agreement, by GlaxoSmithKline R&D (Stevenage, U.K). […] All data are expressed as means ± SEMs of n determinations. […] The combination index (CI) was calculated with the Chou–Talalay equation[33] following the formula [drawing 1] […]
VALUE_KIND: pIC50
Hey, just a heads up that pIC50 is the negative log base 10 of the concentration in molar.

Look up and report measured pIC50 for this entry: C=C(CO)CC1CC(O)C2(C)OC3CC4OC5CC6(C)OC7(C)CCC8OC9CC%10(C)OC%11C(C)=CC(=O)OC%11CC%10OC9CC(C)C8OC7CC6OC5(C)C/C=C\C4OC3CC2O1 (stereo not shown)
6.69

###

TARGET_OR_SYSTEM: human Nav1.6 voltage-gated sodium channels (Homo sapiens, UniProt Q9UQD0)
Construct: host or cells: HEK293
Sequence (Q9UQD0 whole entry): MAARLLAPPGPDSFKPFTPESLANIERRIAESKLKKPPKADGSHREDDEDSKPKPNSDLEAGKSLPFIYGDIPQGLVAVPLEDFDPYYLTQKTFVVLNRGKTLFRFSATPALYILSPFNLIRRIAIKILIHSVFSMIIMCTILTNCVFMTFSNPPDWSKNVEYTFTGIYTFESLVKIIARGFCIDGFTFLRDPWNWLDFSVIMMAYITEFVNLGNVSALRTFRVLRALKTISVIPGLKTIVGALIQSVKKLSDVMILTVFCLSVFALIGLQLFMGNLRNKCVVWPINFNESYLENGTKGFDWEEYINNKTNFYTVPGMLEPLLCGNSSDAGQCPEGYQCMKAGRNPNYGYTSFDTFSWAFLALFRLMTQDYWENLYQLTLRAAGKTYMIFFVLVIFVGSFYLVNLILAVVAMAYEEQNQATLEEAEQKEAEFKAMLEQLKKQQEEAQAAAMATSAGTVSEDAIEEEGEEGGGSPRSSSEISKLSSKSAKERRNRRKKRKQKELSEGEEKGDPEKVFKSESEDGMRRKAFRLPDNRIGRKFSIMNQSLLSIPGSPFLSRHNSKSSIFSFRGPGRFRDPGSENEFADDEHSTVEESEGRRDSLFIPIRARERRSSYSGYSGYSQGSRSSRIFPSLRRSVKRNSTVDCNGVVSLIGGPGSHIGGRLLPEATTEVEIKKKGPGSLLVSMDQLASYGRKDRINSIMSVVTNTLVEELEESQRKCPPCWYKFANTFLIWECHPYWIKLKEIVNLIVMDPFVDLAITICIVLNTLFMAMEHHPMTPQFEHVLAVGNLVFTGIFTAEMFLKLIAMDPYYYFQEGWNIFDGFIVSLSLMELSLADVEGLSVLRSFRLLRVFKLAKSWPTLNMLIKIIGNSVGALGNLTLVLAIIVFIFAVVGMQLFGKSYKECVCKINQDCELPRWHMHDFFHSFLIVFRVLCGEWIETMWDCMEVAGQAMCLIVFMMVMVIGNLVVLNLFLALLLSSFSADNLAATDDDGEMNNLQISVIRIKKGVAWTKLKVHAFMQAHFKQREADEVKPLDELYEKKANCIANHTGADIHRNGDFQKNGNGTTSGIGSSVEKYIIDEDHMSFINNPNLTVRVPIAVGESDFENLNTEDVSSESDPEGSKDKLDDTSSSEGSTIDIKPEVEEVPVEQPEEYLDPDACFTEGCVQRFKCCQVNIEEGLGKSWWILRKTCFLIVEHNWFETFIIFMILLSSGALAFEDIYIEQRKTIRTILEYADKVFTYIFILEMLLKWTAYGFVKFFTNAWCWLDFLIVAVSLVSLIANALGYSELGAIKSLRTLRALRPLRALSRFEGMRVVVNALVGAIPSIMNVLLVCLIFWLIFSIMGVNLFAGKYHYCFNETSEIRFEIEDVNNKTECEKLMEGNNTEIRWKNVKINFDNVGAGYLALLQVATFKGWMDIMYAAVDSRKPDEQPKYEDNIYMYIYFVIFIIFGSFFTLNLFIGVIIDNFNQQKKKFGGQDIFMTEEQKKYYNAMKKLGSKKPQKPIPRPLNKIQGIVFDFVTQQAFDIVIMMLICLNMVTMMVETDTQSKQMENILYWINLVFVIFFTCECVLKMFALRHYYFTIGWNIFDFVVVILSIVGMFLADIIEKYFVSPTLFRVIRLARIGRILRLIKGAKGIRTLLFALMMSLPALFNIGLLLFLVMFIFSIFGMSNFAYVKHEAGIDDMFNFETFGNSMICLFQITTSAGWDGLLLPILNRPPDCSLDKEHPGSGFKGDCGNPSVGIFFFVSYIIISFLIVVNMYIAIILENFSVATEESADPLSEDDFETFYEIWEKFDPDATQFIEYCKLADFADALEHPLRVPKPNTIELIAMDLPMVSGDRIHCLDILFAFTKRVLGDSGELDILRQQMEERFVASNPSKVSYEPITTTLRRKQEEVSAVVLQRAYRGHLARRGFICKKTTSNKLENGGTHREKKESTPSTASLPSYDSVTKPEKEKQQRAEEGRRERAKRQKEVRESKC
METHOD: Whole-cell patch-clamp recording of sodium current activation (peak INa, activation voltage) in HEK293 cells transfected with Nav1.6
Format: cell-based
MEASUREMENT_CONDITIONS: single toxin alone; read-out: IC50, percent inhibition of the peak inward sodium currents (INa)
Description: The human embryonic kidney cell line (HEK293) transfected with the α subunit of the Nav1.6 sodium channel isoform was kindly provided, under a material transfer agreement, by GlaxoSmithKline R&D (Stevenage, U.K). […] All data are expressed as means ± SEMs of n determinations. […] The combination index (CI) was calculated with the Chou–Talalay equation[33] following the formula [drawing 1] […]
VALUE_KIND: pIC50
Hey, just a heads up that pIC50 is the negative log base 10 of the concentration in molar.

Name the recorded pIC50 of CC1CC2OC3C(CC2OC2CC4OC5CC=CCC6OC7C=CC8OC9C(CC8OC7CC=CC6OC5CC(O)C4(C)OC2C1)OC1CC=CCOC1C9O)OC1C(C)C(C)C2(CCCO2)OC1C(O)C3C (stereo not shown) , assay system human Nav1.6 voltage-gated sodium channels (Homo sapiens, UniProt Q9UQD0).
9.76

###

TARGET_OR_SYSTEM: human Nav1.6 voltage-gated sodium channels (Homo sapiens)
Construct: host or cells: HEK293
METHOD: Whole-cell patch-clamp recording of fast inactivation of sodium channels in HEK293 cells transfected with Nav1.6
Assay type: cell-based
MEASUREMENT_CONDITIONS: read-out: IC50, hyperpolarizing shift in the inactivation voltage
VALUE_KIND: pIC50
Hey, just a heads up that pIC50 is the negative log base 10 of the concentration in molar.

Look up and report measured pIC50 for this entry: C=C(CO)CC1CC(O)C2(C)OC3CC4OC5CC6(C)OC7(C)CCC8OC9CC%10(C)OC%11C(C)=CC(=O)OC%11CC%10OC9CC(C)C8OC7CC6OC5(C)C/C=C\C4OC3CC2O1 (stereo not shown)
5.33

###

TARGET_OR_SYSTEM: human Nav1.6 voltage-gated sodium channels (Homo sapiens, UniProt Q9UQD0)
Construct: host or cells: HEK293
METHOD: Whole-cell patch-clamp recording of sodium current activation (peak INa, activation voltage) in HEK293 cells transfected with Nav1.6
Format: cell-based
MEASUREMENT_CONDITIONS: single toxin alone; read-out: IC50, negative shift in the activation voltage
VALUE_KIND: IC50 (nM)
Record the value in nM, omitting the unit from your answer.

Look up and report measured IC50 for this entry: CC1CC2OC3C(CC2OC2CC4OC5CC=CCC6OC7C=CC8OC9C(CC8OC7CC=CC6OC5CC(O)C4(C)OC2C1)OC1CC=CCOC1C9O)OC1C(C)C(C)C2(CCCO2)OC1C(O)C3C (stereo not shown) [CTX3C, ciguatoxin 3C]
2.58

Entry source: paper PMC10845145
